Consider the following molecules; for each one, report its pIC50.
- test system: human TRPA1 (Homo sapiens)
- Construct: expressed in transfected cells; host or cells: Human embryonic kidney-derived 293T cells, transiently transfected with the pcDNA3.1/zeo(+) human TRPA1 plasmid
- assay comment: Measurement of TRPA1 antagonist activity (intracellular calcium increase, FLIPR, allylisothiocyanate stimulation)
- Format: cell-based
- experimental context: allylisothiocyanate 20 μM stimulation, FLIPR calcium assay; read-out: antagonism hTRPA1
# log scale: pIC50 equals minus log10 of the concentration in mol/L

Give the reported value of pIC50 for this record: N#Cc1ccc(S(=O)(=O)N2CCC[C@H]2C(=O)NCc2cccc(OCc3ccc(C(F)(F)F)cc3)c2)cc1 [Example 185]
6.62

Given CC(C)(C)c1ccc(COc2cccc(CNC(=O)[C@@H]3CCCN3S(=O)(=O)c3ccc(F)cc3)c2)cc1 [Example 122] , respond with its pIC50.
6.36

Annotate the molecule O=C(NCc1cccc(OCc2ccncc2)c1)[C@@H]1CCCN1S(=O)(=O)c1ccc(F)cc1 [Example 133] with its measured pIC50.
5.36

Answer with the recorded pIC50 for the molecule listed here: CN(C)c1cccc(Oc2cccc(CNC(=O)[C@@H]3CCCN3S(=O)(=O)c3ccc(F)cc3)c2)c1 [Example 116]
5.89

Hello, please tell me recorded pIC50 for this one: O=C(NCc1cccc(OCc2ccc(C(F)(F)F)cc2)c1)[C@@H]1CCCN1S(=O)(=O)c1ccc2nsnc2c1 [Example 210]
6.82

Report measured pIC50; entry is O=C(NCc1cccc(OCc2ccc(C(F)(F)F)cc2)c1)[C@@H]1CCCN1S(=O)(=O)c1cncs1 [Example 217]
6.03

Item CN(C)c1ccccc1COc1cccc(CNC(=O)[C@@H]2CCCN2S(=O)(=O)c2ccc(F)cc2)c1 [Example 129] : provide pIC50
6.19

Please report pIC50 for the following molecule: O=C(NCc1cccc(OCc2ccc(C(F)(F)F)cc2)c1)[C@@H]1CCCN1S(=O)(=O)c1cscn1 [Example 218]
6.08

Could you please provide reported pIC50 for O=C(NCc1cccc(OCc2ccc(C(F)(F)F)cc2)c1)[C@@H]1CCCN1S(=O)(=O)c1ccccn1 [Example 202] ? Thanks!
6.40

State its pIC50 for this molecule: O=C(NCc1cccc(OCc2ccc(C(F)(F)F)cc2)c1)[C@@H]1[C@H]2CC[C@H](C2)N1S(=O)(=O)c1ccc(F)cc1 [Example 214]
6.92

Answer with the recorded pIC50 for the molecule listed here: CC(Oc1cccc(CNC(=O)[C@@H]2CCCN2S(=O)(=O)c2ccc(F)cc2)c1)c1ccc(Cl)cc1 (stereo in doubt) [Example 145]
7.19

Given the molecule Cc1sccc1S(=O)(=O)N1CCC[C@H]1C(=O)NCc1cccc(OCc2ccc(C(F)(F)F)cc2)c1 [Example 204] , write its reported pIC50.
6.00

Find the measured pIC50 of COc1ccccc1S(=O)(=O)N1CCC[C@H]1C(=O)NCc1cccc(OCc2ccc(C(F)(F)F)cc2)c1 [Example 198] and report it.
5.41

Answer with reported pIC50 of C[C@H](Oc1cccc(CNC(=O)[C@@H]2CCCN2S(=O)(=O)c2ccc(F)cc2)c1)c1ccccc1 [Example 144]
6.26

Write down pIC50 measured for item O=C(NCc1cccc(OCc2ccc(C(F)(F)F)cc2)c1)[C@@H]1C[C@@H](O)CN1S(=O)(=O)c1ccco1 [Example 180]
5.89

For the molecule COc1ccc(S(=O)(=O)N2CCC[C@H]2C(=O)NCc2cccc(OCc3ccc(C(F)(F)F)cc3)c2)cc1 [Example 196] , report pIC50.
6.19

Input O=C(NCc1cccc(OCc2ccc(C(F)(F)F)cc2)c1)[C@@H]1CCCN1S(=O)(=O)c1ccc2ncsc2c1 [Example 209] , output reported pIC50.
5.54

Specify reported pIC50 for the molecule shown: O=C(NCc1cccc(OCc2ccc(C(F)(F)F)cc2)c1)[C@@H]1C[C@H](F)CN1S(=O)(=O)c1ccc(F)cc1 [Example 164]
6.35

Find the measured pIC50 of O=C(NCc1cccc(OCc2ccc(C(F)(F)F)cc2)c1)[C@@H]1C[C@H]2C[C@H]2N1S(=O)(=O)c1ccc(F)cc1 [Example 173] and report it.
7.00

====

- test system: human TRPA1 (Homo sapiens)
- Construct: expressed in transfected cells; host or cells: Human embryonic kidney-derived 293T cells, transiently transfected with the pcDNA3.1/zeo(+) human TRPA1 plasmid
- assay comment: Measurement of TRPA1 antagonist activity (intracellular calcium increase, FLIPR, allylisothiocyanate stimulation)
- Assay type: cell-based
- experimental context: 293T cells transfected with human TRPA1; allylisothiocyanate 20 μM; concentration for 50% inhibitory rate; read-out: antagonism hTRPA1
outcome measure: log10 of IC50 (log10 of the value in nM)
Hey, these are logged values: log10 of IC50, nM being the unit before logging.

Report measured log10 of IC50; entry is O=C(NCc1ccc(COc2ccccc2)cc1C(F)(F)F)[C@@H]1CCCN1S(=O)(=O)c1ccc(Cl)s1 [Example 76]
2.20

Give recorded log10 of IC50. O=C(NCc1ccc(COc2ccccc2)cc1)[C@@H]1CCCN1S(=O)(=O)c1ccc(F)c(F)c1 [Example 84]
3.04

Supply log10 of IC50 value. Item: O=C(NCc1cccc(Oc2cccc(C(F)(F)F)c2)c1)[C@@H]1CCCN1S(=O)(=O)c1ccc(Cl)s1 [Example 19]
1.90

Let me know recorded log10 of IC50 for O=C(NCc1ccc(Oc2cccc(C(F)(F)F)c2)c(Cl)c1)[C@@H]1CCCN1S(=O)(=O)c1ccc(Cl)s1 [Example 24] , thanks.
2.15

Name the recorded log10 of IC50 of the item O=C(NCc1ccnc(Oc2ccc(C(F)(F)F)cc2)c1)[C@@H]1CCCN1S(=O)(=O)c1ccc(Cl)s1 [Example 39] in your answer.
1.81

State its log10 of IC50: O=C(NCc1ccc(Oc2ccnc(C(F)(F)F)c2)cc1)[C@@H]1CCCN1S(=O)(=O)c1ccc(Cl)s1 [Example 12]
1.94

Return the recorded log10 of IC50 value; entry: O=C(NCc1ccc(Oc2cccc(Cl)c2)cc1)[C@@H]1CCCN1S(=O)(=O)c1ccc(Cl)s1 [Example 8]
2.00

====

- test system: human TRPA1 (Homo sapiens, UniProt O75762)
- Construct: expressed in transfected cells; host or cells: Human embryonic kidney-derived 293T cells, transiently transfected with the pcDNA3.1/zeo(+) human TRPA1 plasmid
- Sequence (O75762 whole entry): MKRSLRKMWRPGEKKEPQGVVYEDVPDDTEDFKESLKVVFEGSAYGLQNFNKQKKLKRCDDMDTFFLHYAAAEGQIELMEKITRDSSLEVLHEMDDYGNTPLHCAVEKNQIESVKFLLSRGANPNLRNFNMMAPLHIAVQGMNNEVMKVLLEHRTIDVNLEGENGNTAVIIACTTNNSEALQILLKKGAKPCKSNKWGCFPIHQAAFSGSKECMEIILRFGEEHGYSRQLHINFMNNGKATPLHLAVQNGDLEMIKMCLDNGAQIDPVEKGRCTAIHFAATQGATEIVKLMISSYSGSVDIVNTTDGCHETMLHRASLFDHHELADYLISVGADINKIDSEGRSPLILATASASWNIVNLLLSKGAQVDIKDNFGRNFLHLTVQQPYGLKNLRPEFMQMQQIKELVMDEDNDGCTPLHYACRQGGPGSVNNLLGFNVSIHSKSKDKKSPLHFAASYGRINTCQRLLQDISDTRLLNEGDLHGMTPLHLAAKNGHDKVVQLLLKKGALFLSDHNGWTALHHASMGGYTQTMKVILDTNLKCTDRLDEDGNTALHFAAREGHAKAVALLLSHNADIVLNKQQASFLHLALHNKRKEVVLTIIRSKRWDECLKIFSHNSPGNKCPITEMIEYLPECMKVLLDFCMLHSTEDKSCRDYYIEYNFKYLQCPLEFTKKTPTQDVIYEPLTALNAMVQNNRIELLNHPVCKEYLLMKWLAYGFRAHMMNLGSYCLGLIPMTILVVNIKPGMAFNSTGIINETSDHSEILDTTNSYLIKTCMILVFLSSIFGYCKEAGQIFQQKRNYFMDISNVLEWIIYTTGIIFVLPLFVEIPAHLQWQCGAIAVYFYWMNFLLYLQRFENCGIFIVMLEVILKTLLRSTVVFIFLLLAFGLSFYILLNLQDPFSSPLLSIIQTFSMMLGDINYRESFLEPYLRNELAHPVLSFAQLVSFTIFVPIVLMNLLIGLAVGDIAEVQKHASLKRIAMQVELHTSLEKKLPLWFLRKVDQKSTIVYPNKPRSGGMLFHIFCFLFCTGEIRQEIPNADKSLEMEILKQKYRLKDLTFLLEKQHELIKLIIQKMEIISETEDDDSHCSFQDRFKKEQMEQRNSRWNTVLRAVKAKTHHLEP
- assay comment: Measurement of TRPA1 antagonist activity (intracellular calcium increase, FLIPR, allylisothiocyanate stimulation)
- Type: cell-based
- experimental context: allylisothiocyanate 20 μM stimulation, FLIPR calcium assay; read-out: antagonism hTRPA1
pIC50: −log10 of the molar value.
Returns MET if the recorded pIC50 is greater than or equal to 7, and NOT MET otherwise.

Hi, just wondering whether O=C(NCc1cccc(OCc2ccc(C(F)(F)F)cc2)c1)[C@@H]1CCCN1S(=O)(=O)n1ccnc1 [Example 220] shows pIC50 of 7 or higher.
NOT MET

Answer whether pIC50 of O=C(NCc1cccc(OCc2ccc(Cl)c(F)c2)c1)[C@@H]1CCCN1S(=O)(=O)c1ccc(F)cc1 [Example 131] is greater than or equal to 7.
MET

Given O=C(NCc1cccc(OCc2ccc(C(F)(F)F)cc2)c1)[C@@H]1CCCN1S(=O)(=O)c1ccncc1 [Example 216] , state whether its pIC50 is at least 7.
MET

# check: pIC50 of O=C(NCc1cccc(OCc2ccc(C(F)(F)F)cc2)c1)[C@@H]1[C@@H]2C[C@@H]2CN1S(=O)(=O)c1ccc(F)cc1 [Example 172] is greater than or equal to 7
NOT MET

Hello, I need to know if O=C(NCc1cccc(OCc2ccc(C(F)(F)F)cc2)c1)[C@@H]1CCCN1S(=O)(=O)c1cnc2ccccc2c1 [Example 206] has measured pIC50 not below 7. Thanks!
NOT MET

Does pIC50 meet or surpass 7 for O=C(NCc1cccc(OCc2ccc(C(F)(F)F)cc2)c1)[C@@H]1CCCN1S(=O)(=O)c1cccc(F)c1 [Example 192] ?
MET

Decide: pIC50 of O=C(NCc1cccc(OCc2ccc(C(F)(F)F)nc2)c1)[C@@H]1CCCN1S(=O)(=O)c1ccco1 [Example 149] >= 7?
NOT MET

Check if pIC50 >= 7 (inclusive). Item: O=C(NCc1cccc(OCc2ccc(F)cc2)c1)[C@@H]1CCCN1S(=O)(=O)c1ccc(F)cc1 [Example 121]
MET

Determine whether this molecule has pIC50 no lower than 7: O=C(NCc1cccc(OCc2ccc(C(F)(F)F)cc2)c1)[C@@H]1[C@H](O)CCN1S(=O)(=O)c1ccc(F)cc1 [Example 168]
NOT MET

Is pIC50 for O=C(NCc1cccc(OCc2ccco2)c1)[C@@H]1CCCN1S(=O)(=O)c1ccc(F)cc1 [Example 140] at or above 7?
NOT MET

Quick check: does O=C(NCc1cccc(OCc2ccc(C(F)(F)F)cc2)c1)[C@@H]1CCCN1S(=O)(=O)c1nccs1 [Example 184] have pIC50 greater than or equal to 7?
NOT MET

Could you verify whether the entry O=C(NCc1cccc(OCc2ccc(C(F)(F)F)cc2)c1)[C@@H]1CCCN1S(=O)(=O)c1ccc(OC(F)F)cc1 [Example 199] shows pIC50 of no less than 7?
NOT MET

Origin of measurements: patent US20150284375A1
